- Assay summary: yeast display, Sf9 membrane polyspecificity reagent, FACS + sequencing; frameworks hold sequencing errors
Assay readout: polyreactivity (PSR sort gate)

Sequence chain	Measured value
QVQLVESGGGLVQAGASLRLSCAASGSIFTRNTMGWYRQAPGKERELVARISGGRTNYADSVKGRFTISRDNAKNTVYLQMYSLKPVDTAVYYCAARGLYTPTKRSGDPYYYWGQGSQVTVSS	high polyreactivity
QVQLVESGGGLVQAGGSLRLSCAASGFTFRYYVMGWYRQAPGKERELVATITWGGGSTYYADSVKGRFTISRDNAKNTVYLQMNSLKPEDPAVYYCAASLKWGRGVLARVLWYNYWGQGTQVTVSS	low polyreactivity
QVQLVESGGGLVQAGGSLRLSCAASGRIFRYNAMGWYRQAPGKERELVAAITRSGGSTYYADSVKGRFTISRDNAKNTVYLQMNSLKPEDTAVYYCAKVQNGQWSTSRVPGDYQYNYWGQGTQVTVSS	high polyreactivity
QVQLVESGGGLVQAGGSLRLSCAASGRNFGYYVMGWYRQAPGKERELVAAIRSSADSTYYADSVKGRFTISRDNAKNTVYLQMNSLKPEDTAVYYCAAQSPAYYTKCYWGQGTQVTVSS	low polyreactivity
QVQLVESGGGLVQAGGSLRLSCAASGSIFDYYTMGWYRQAPGKERELVAAISWSGGSTYYADSVKGRFTISRDNAKNTVYLQMNSLKPEDTAVYYCNAVGYSRYTVWSYYYWGQGTQVTVSS	high polyreactivity
QVQLLESGGGLVQAGGSLRLSCAASGLTICYYAMGWYRQAPGKEREYVAAITSRGGDTYYADSVKGRFTISRDNAKNTVYLEMNSLKPEDTAVYYCAVRPRYYGTYRYYYWGQGTQVTVSS	high polyreactivity
QVQLVESGGGLVQAGGSLRLSCAASGSTFAVYAMGWYRQEPGKERELVATITGSGGSTYYADSVKGRFTISRDNAKNTVYLQMNSLKPEDTAVYYCAAEVVAWSLYEDFKTYDYWGQGTQVTVSS	low polyreactivity
QVQLVESGGGLVQAGGSLRLSCDASGRIFSVYAMGWYRQEPGKEREFVSAISRGGSTNYADSVNGRFTISRDNAKYTVYLQKNSLKPEDTAVYYWGASSLPNYYYRHYYLYEYWGQGTQVTVSS	low polyreactivity

Consider the additional sequence presented here.
Input: Name the reported polyreactivity (PSR sort gate) value associated with the sequence `QVQLVESGGGLVQAGGSLRLSCAASGSTFARYAMGWYRQAPGKERELVAAISRSGSNTYYADSVKGRFTISRDNAKNTVYLQMNSLKPEDTAVYYCAAVQPGQRTVAYDYWGQGTQVTVSS`
Output: high polyreactivity

----------
- Assay summary: yeast display, Sf9 membrane polyspecificity reagent, FACS + sequencing; frameworks hold sequencing errors
Assay readout: polyreactivity (PSR sort gate)

Solved entries:
Sequence chain	polyreactivity (PSR sort gate)
QVHLVESGGGLVQAGGSLRISCAASGFIFEPYAMGWYRQAPGKERELVAAISSTGGSTYADSVKGRFTISRDNAKNTVYIQMNSLKPEDTEGYYCAAKVRISRYTYGYWGQGNQVTVSS	high polyreactivity
QVQLVESAGGLVQAGGSLRLTCAASGRTFHHNAMGWYRQPPGKERELFAAITSVGNTYADSVKGRFTISRDNAKNTVYLLMNSMKPEDTAVYYCNARIYDSRFYWSPATSRFEYWGQGTQVTLSS	low polyreactivity
QVQLVESGGGVVQAGGSLRLSCAASGSTFGINCYGMYRQAPGKERELVAGISVSGGSTYYADSVKGRFTISRDNAKNTVYLKMNSLKPEDSAVYYCNRDTTVFLIYSYGYWGQGTQVTVSS	low polyreactivity
QVQLVESGGGLVQAGGSLRLSCAASGLIFYDNMGWYRQAPGKERELVAAISSSGGSRTYAYSVKGRFTISRDNAKNTVYFQMNSLKPEDTEVYYCALDKHYYGRYGVTYDYDYWGQGTQVTVSS	low polyreactivity

Consider the additional sequence presented here.
Input: Name the reported polyreactivity (PSR sort gate) value associated with the sequence `QVQLVESGGGLVQAGGSLRLSCAASGNIFPYYTMGWYRQAPGKERELVAAISSSGSTYYADSVKGRFTISRDNAKNTVYLQMNSLKPEDTAVYYCAARLYPYGWYDYWGQGTQVTVSS`
Output: high polyreactivity

----------
- Assay summary: yeast display, Sf9 membrane polyspecificity reagent, FACS + sequencing; frameworks hold sequencing errors

Sequence chain	polyreactivity (PSR sort gate)
QVQLVESGGGLVQAGGSLRLSCAASGLTFHDYAMGWYIQAHVKERELVAGINSGGSTNYADSVKGRFTISRDNAKNTVYLQMNSLKPEDTAVYYCARGPQYDEGEYWGQCTQVTVSS	low polyreactivity
QFQLVESGGGLVQAGGSLRLSCAASGIIFRYYGMGWYRQAPGKERELVARILWTGGSTYYADSVKGRFTISRDNAKNTVYFQMNSLKPEDTAVYYSAADIWQYSRIANYHPYEYWGQGTQVTVSS	low polyreactivity

----------
- Assay summary: yeast display, Sf9 membrane polyspecificity reagent, FACS + sequencing; frameworks hold sequencing errors
Assay readout: polyreactivity (PSR sort gate)

Solved entries:
Sequence chain	polyreactivity (PSR sort gate)
QVQLVESGGGLVQAGGSLRFSCAASGRTFYFYAMGWYRQAPGKERELVAAIRSSGGSTNYADSVKGRFTISRDNAKNTVYLQMNSLKPEDTAVYYCAAKRRAKGNYAFYYWGQGTQVTVSS	high polyreactivity
QVQLVESWGGLVQAGGSLRLSCAASGSIFGENAMGWYREAPRKEMELVAAITSGGSTDYADSVKGRFTISRDNAKNTVYLQMNSPKVEDTAVYYCAASGRVGPGYCYDSWGQGTQVTVSS	low polyreactivity
QVQLVESGGGLVQAGGSLRLSCAASGFTFVWYAMGWYRQAPGKEREFVAAINRSGGSTYYADSVKGRFTISRDNAKNTVYLQMNSLKPEDTAVYYCAAESWRGWSEFYYWGQGTQVTVSS	high polyreactivity
QVQLVESGGGILQAGGSLRLSCAASGFISSVNAMGWYRQATGKERELVAAISDSATSTYYADSVKGRFTISRDNAKNTVYLQMNSLKPVDTALYYCAAYSHYVGYEYWGQGTQVTVSS	high polyreactivity

Consider the additional sequence presented here.
Input: Name the reported polyreactivity (PSR sort gate) value associated with the sequence `QVQHVESVGGLVQAGGSLRLICADSGFTFWPYAMGWYRPAPGTERELVAAITSSGSTNYADSVKGRFTISRDNAKNTVYLQMNSMKQEDTAVYYCAADHRPWRFQSSVQLYYYWGQGTQVTVSS`
Output: low polyreactivity

----------
- Assay summary: yeast display, Sf9 membrane polyspecificity reagent, FACS + sequencing; frameworks hold sequencing errors
Assay readout: polyreactivity (PSR sort gate)

Sequence chain	polyreactivity (PSR sort gate)
QVQLVESGGGLVQSGGSLRLSCAASGGSFTFYAMGWYRQAPGKERELVATINWSGGSTYYADSVKGRFTISRDNAKNTVYLQMNSLKPEDTAVYYCNAAWPYKSVEYWGQGTQVTVSS	low polyreactivity
QVQLGESGGGLVQAGGSLRLSCAASGIIFYEYVMVWYRQAPGKEREFVATISSIGGSTYYADSVKGRFTISRDNAKNTVYLQMNSRKPADTAVYYCAADPDPVVAPGGNWYGDDYWGQGSQVTVSS	high polyreactivity
QDQLVESGGGLVQAGGSLRLSCAASGNTFVSNAMGWYRQAPGKERELVAAIDSGGSTNYADSVKGRFTISRDNAKYTVYLQMNSLKPEDTAVYYCNRTSVYYYYWGQGTQVTVSS	low polyreactivity
QVQLVESAGGLVQAGGSLRLSCAASGSIFGSYAMGGYRQAPGKERELVAAIYSSGGSTYYADSVKGRFTISRDNAKNTVYLQMNSLKPEDTAVYYCNKYVRYGDGYWGQGTQVTVSS	high polyreactivity

Consider the additional sequence presented here.
Input: Name the reported polyreactivity (PSR sort gate) value associated with the sequence `HVQLVESGGGLVQAGGSLRLSCAASGRIFPGNVMGWYRHAPGKERELVAGIDSSGGSTSYADSVKGRFTISRDNAKNSVYLQMNSLKPEDTAVYYCAKVRDQARYQWGYQEFDYWGEGTQVTVSS`
Output: low polyreactivity

----------
- Assay summary: yeast display, Sf9 membrane polyspecificity reagent, FACS + sequencing; frameworks hold sequencing errors
Assay readout: polyreactivity (PSR sort gate)

Sequence chain	polyreactivity (PSR sort gate)
QVQLVESGGGLVQAGGSLRLSCAASGSIFVFYAMGWYRQAPGKERELVAAISYRGGSTYADSVKGRFTISRDNEKNTVYLQMNSLKPEDTAVYYCAARGLVRSYDYWGQGTQVTVSS	high polyreactivity
QVQLVESAGGLVQAGGSLRLSCAASGIIFTPNPMGWYRQAPGKEREFVAAINYGGDTTYYADSVKGRFTISRNNAKNTVYLQMNRLKPEDTAVYYCATDGTTPTPRDAFVRFDHWGQGTQVTVSS	low polyreactivity
QVQLVESGGGLVQAGGSLRLSCAASGSIFYYYAMGWYRQAPGKERELVAAISDDAITYYADSVKGRFTISRDNAKNTVYLQMNSLKPEDTAVYYCAAELYYPVGFDYWGQGTQVTVSS	high polyreactivity
QLQLVESGGGLVQAGGSLRLSCAASGSIFAIYAMGWYRQAPGKERELVAAISDGGGTNYADSVKGRFTISRDNAKNTVYLQMNSLKPEDTAVYYCAADLGWSTYVSNGPKGYDHWGQGTQVTVSS	low polyreactivity
QVQLVESGGGLVQAGGSLRLSCAASGLIFDYNAMGWYRQAPGKERELVAAISSGGSTYYADSVKGRFTISRDNAKNTVYLQMNSLKPEDTAVYYCATRRQAQYTRYYGSRQFYYWGQGTQVTVSS	high polyreactivity

Input: Name the reported polyreactivity (PSR sort gate) value associated with the sequence `QVQLVESGGGLVQAGGSLRLSCAASGFTFDSYAMGWYRQAPGKERELVAAITSSGGRTYYADSVKGRFTISRDNAKNTVYLQMNSLKPEDTSVYYCAARAISNFGYWGQGTQVTVSS`
Output: high polyreactivity

Input: Name the reported polyreactivity (PSR sort gate) value associated with the sequence `QVQLVESVGGLVQAGGSLRLSCAASGFIQGAYAMGWYRPAPGKERELVAAITSSGGSTYYADSVKGRFTISRDNAKNTVYLQMNSLKPEDTAVYYCNTVYVYGPEYDYWGQGTQVTVSS`
Output: high polyreactivity

Input: Name the reported polyreactivity (PSR sort gate) value associated with the sequence `QVQLVESGGGIVQAGGSLRLSCAASGRIFSGNGMGWYRQAPGKEREFVAAIRFSSGSTYYADSVKGRFTISRDNAKNTVYLQMNSLKPEDTAVYYCARPSIPSRYDYWGQGTQVTVSS`
Output: high polyreactivity

Input: Name the reported polyreactivity (PSR sort gate) value associated with the sequence `QVQLVESGGGLVQAGGSLRLSCAASGRTFALYTMGWYRQAPGKVRELVAAINWSGTSTYYADSVKGRFTISRDNAKNTVYLQMNSLKPEDTAVYYCNRDPRKYGKLDYWGQGTQVTVSS`
Output: low polyreactivity

Input: Name the reported polyreactivity (PSR sort gate) value associated with the sequence `QVQLVESGGGLVQAGGSLRLICAASGSIFGNYVMGWYRQAPGKEMELVAGISTRGGSTYYADSVKGRFTISRDNAKNTVYLQMNCLKPEDTAVYYCAAVPASYRYPMYYWGQGTQVTVSS`
Output: low polyreactivity

Input: Name the reported polyreactivity (PSR sort gate) value associated with the sequence `QVQLVESGGGLVQAGCSLRISCAASGLIFQYYAMGWYRQAPGKERELVAAISGFGVRTYYADSVKGRFTISRDNAKNTVYLQMNSLKPEDTAVYYCNTLRQDIIRGDYWGQGTQVTVSS`
Output: high polyreactivity
